B1: LINE1-mini (parent)
chain: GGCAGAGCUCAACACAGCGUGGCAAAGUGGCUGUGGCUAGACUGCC

Variants of: B1
METHOD_SUMMARY: self-cleavage, relative activity (ratio to wild type); higher = more cleavage; in vitro, sequencing; the parent is a self-cleaving ribozyme
ASSAY_METRIC: self-cleavage

VARIANT_SPEC: A25C
MEASUREMENT: 0.66

VARIANT_SPEC: A6U G35U
MEASUREMENT: 0.2

VARIANT_SPEC: A6G C42A
MEASUREMENT: 0.12

VARIANT_SPEC: G5A U9C
MEASUREMENT: 0.04

VARIANT_SPEC: A16U U38C
MEASUREMENT: 0.04

VARIANT_SPEC: G7C G21U
MEASUREMENT: 0.08

VARIANT_SPEC: A14G U20A
MEASUREMENT: 0.23

VARIANT_SPEC: C10G A24U
MEASUREMENT: 0.15

VARIANT_SPEC: A14C G33C
MEASUREMENT: 0.03

VARIANT_SPEC: G35C C37A
MEASUREMENT: 0.08

VARIANT_SPEC: C23U G40U
MEASUREMENT: 0.11

VARIANT_SPEC: G2A U28G
MEASUREMENT: 0.48

VARIANT_SPEC: G1C C42U
MEASUREMENT: 0.04

VARIANT_SPEC: A6G G30U
MEASUREMENT: 0.13

VARIANT_SPEC: A11C G29U
MEASUREMENT: 0.07

VARIANT_SPEC: G17U U43G
MEASUREMENT: 0.06

VARIANT_SPEC: A24C A39U
MEASUREMENT: 0.25

VARIANT_SPEC: U28C C46G
MEASUREMENT: 1.68

VARIANT_SPEC: G7C C18G
MEASUREMENT: 0.09

VARIANT_SPEC: A6U U34C
MEASUREMENT: 0.12

VARIANT_SPEC: C31U G40C
MEASUREMENT: 0.03

VARIANT_SPEC: A6G G36U
MEASUREMENT: 0.04

VARIANT_SPEC: U20A G35A
MEASUREMENT: 0.1

VARIANT_SPEC: A25C U32A
MEASUREMENT: 0.05

VARIANT_SPEC: G22A C45A
MEASUREMENT: 0.67

VARIANT_SPEC: A16C C42A
MEASUREMENT: 0.05

VARIANT_SPEC: A24G G33A
MEASUREMENT: 0.07

Hey, just so you know, these numbers are from the RNAGym collection of RNA variant scans (doi:10.7554/elife.90254).
